# tested system: prefusion-stabilized Nipah virus fusion (F) glycoprotein, construct NiVF_prefusion (Nipah virus, Malaysian strain, stabilised)
property measured: binding result

- binder: "201805_NiV_PL4_E11 (antibody, V domains shown) VH: QVQLQQSGAELVKPGASVKLSCKASGYTFTNYDINWVRQRPEQGLEWIGWIFPGDGTTSYNEKFKDKATLTTDKSSSTAYMQLSRLTSEDSTVYFCARLGWGGAMDYWGQGTSVTVSA VL: YTLMTQSPLSLPVSLGDQASISCRSSQSIVHSNGNTYLQWYLQKPGQSPKLLIYKVSNRFSGVPDRFSGSGSGTDFTLKISRVEAEDLGVYYCFQGSHVPYTFGGGPSNKR"
  experimental value: "binds"
- binder: "201805_NiV_PL3_A4 (antibody, V domains shown) VH: QVQLQQSGTELVKPGASVKLSCKASGYTFTSYWMHWVKQRPGQGLEWIGNINPSNGYTNNNEKFKSKATLTVDKSSSTAYMQLSSLTSEDSAVYYCARGGIYYYGSSLYYYTMDYWGQGTSVTVSS VL: DIQMTQSSSSFSVSLGDRVTITCKASEDIYNRLAWYQQKPGNAPRLLISDATSLETGVPSRFSGSGSGKDYTLSITSLQTEDVATYYCHQYWSTPWTFGGGTKLEIK"
  experimental value: "binds"
